Data origin, for the record: patent US20170210813A1

system: T1, hPDGFRb.mmh (human, UniProt P09619 33-531)
T1 construct: Soluble monomeric construct; also called soluble human PDGFR-beta.mmh
T1 sequence (P09619 other isoform, or with tags, fused parts or gaps): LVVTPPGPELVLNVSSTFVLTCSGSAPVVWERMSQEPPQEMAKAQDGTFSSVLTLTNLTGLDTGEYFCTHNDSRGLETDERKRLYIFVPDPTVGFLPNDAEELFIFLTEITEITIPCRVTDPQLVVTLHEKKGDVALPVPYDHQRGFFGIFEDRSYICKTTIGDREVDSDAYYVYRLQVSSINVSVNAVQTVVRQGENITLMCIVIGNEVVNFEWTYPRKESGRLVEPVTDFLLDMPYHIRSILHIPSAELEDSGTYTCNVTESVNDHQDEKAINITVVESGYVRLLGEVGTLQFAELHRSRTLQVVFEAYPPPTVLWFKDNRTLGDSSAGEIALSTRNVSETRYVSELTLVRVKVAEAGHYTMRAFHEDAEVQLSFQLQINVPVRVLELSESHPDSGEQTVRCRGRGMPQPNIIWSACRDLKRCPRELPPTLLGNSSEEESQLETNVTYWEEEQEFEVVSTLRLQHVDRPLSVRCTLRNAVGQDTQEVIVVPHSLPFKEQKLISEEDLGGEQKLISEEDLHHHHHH
experiment: blocking ELISA, biot-hPDGFRb.mmh to coated PDGF-BB
measured endpoint: % Maximum Blocking (%)
Write it as a number; the unit % goes unstated.

Solved cases (3 shown):
binder="H4H3105S (antibody, human IgG4, V domains shown, human IgG4 Fc (H4H prefix)) VH: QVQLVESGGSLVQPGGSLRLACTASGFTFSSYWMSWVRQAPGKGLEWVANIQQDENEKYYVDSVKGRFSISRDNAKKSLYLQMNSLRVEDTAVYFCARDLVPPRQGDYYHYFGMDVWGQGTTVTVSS VL: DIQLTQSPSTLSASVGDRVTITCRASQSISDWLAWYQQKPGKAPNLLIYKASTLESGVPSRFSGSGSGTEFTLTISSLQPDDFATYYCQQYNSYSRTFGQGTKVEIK" measured_endpoint="% Maximum Blocking" experimental_value=86
binder="H2M3373N (antibody, V domains shown, mouse Fc (H2M prefix; isotype not spelled out)) VH: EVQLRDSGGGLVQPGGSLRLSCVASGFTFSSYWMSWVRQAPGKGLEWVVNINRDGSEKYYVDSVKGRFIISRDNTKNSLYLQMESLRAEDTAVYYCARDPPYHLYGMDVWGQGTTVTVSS VL: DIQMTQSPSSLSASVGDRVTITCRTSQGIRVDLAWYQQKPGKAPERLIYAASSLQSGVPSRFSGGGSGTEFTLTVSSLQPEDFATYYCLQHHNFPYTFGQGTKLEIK" measured_endpoint="% Maximum Blocking" experimental_value=80
binder="H4H3104S (antibody, human IgG4, V domains shown, human IgG4 Fc (H4H prefix)) VH: QVQLVESGGGLVQPGGSLRLSCAAAGFTFSHYWMSWVRQAPGKGLEWVATIKKDGSERYYVDSVKGRFTISRDNARNSMYLEMNSLRTEDTAIYYCARDIVTPNTDYYFGMDVWGQGTTVTVSS VL: DIQLTQSPSTLSASVGDRVTITCRASQSFNNWLSWYQQKPGKAPKLLIYMASTLESGVPSRFSGSGSGTDFTLTINSLQPDDFATYYCQQSNSYSRTFGHGTKVEIK" measured_endpoint="% Maximum Blocking" experimental_value=89

[in] Any idea what its % Maximum Blocking is? The binder is H4H3095S (antibody, human IgG4, V domains shown, human IgG4 Fc (H4H prefix)) VH: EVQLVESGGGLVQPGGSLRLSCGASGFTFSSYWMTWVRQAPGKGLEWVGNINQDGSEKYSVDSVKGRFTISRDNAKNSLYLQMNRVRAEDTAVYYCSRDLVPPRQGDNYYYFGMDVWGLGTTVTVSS VL: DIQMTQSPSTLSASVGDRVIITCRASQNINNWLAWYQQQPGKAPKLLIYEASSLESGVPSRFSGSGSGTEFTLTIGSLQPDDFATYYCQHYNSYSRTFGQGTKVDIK
[out] 82
